Biological target: recombinant human Flag-tagged PARP7 (amino acids 456-657) (Homo sapiens)
Construct: recombinant human Flag-tagged PARP7 (amino acids 456-657)
Sequence (Q7Z3E1 456-657): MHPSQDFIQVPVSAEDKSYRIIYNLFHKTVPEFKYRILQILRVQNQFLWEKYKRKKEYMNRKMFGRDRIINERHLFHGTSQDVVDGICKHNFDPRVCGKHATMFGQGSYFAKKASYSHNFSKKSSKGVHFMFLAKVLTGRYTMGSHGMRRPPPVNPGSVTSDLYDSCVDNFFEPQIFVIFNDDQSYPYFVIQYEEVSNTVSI
Test: PARP7 biochemical DELFIA assay (auto-MARylation)
Details: DELFIA readout, IC50 class
Experimental: A suitable assay may be conducted using 10-30 nM PARP7 (amino acids 456-657), 2 μM biotin-NAD assay solution in 20 mM HEPES (pH 7.5), 100 mM NaCl, 2 mM DTT, 0.1% BSA (w/v), 0.02% Tween (v/v) assay buffer. MARylation may take place for 2-3 h at room temperature and may be detected using a dissociation-enhanced lanthanide fluorescence immunoassay (DELFIA) readout. […] Following incubation for 30 min at room temperature, fluorescence was read on either an Envision or Pherastar FS (Ex337 nm, Em620 nm).
// IC50 lookup, one value per entry
REPORTED_PROPERTY: IC50

> print(dat)
                                    molecule            result
 1  Cc1cn(CCOCCC(=O)N2CCN(c3ncc(C(F)(F)F)cn3)CC2)c2cn[nH]c(=O)c12          ≤ 100 nM
 2  O=C(CCOCCc1cccc2c(=O)[nH]ncc12)N1CCC(c2ncc(Cl)cn2)CC1    100 to 1000 nM
 3  O=C(COCCOc1cccc2c(=O)[nH]ncc12)N1CCN(c2ncc(C(F)(F)F)cn2)CC1    100 to 1000 nM
 4  O=C(CCOCCn1nc(C(F)(F)F)c2c(=O)[nH]ncc21)N1CCN(c2nc3ccccc3[nH]2)CC1          ≤ 100 nM
 5  N#Cc1ccc(N2CCN(C(=O)c3ccc(Cc4cccc5c(=O)[nH]ncc45)cc3)CC2)nc1  1000 to 10000 nM
 6  Cc1cc2c(=O)[nH]ncc2n1CCOCCC(=O)N1CCN(c2ncc(C(F)(F)F)cn2)CC1          ≤ 100 nM
 7  CC(COCCC(=O)N1CCN(c2ccc(C#N)cn2)CC1)n1cc(C(F)(F)F)c2c(=O)[nH]ncc21 (single isomer, unassigned) [Compound 432]          ≤ 100 nM
 8  CC(COCCC(=O)N1CCN(c2ccc(OC(F)F)cn2)CC1)n1nc(C(F)(F)F)c2c(=O)[nH]ncc21 (single isomer, unassigned) [Compound 274]          ≤ 100 nM
 9  CC1CN(c2ccc(C#N)cn2)CCN1C(=O)CCOCCc1cccc2c(=O)[nH]ncc12 (centres unmarked) [Compound 85]          ≤ 100 nM
10  Cn1c(N2CCN(C(=O)CCOCCn3cc(C(F)(F)F)c4c(=O)[nH]ncc43)CC2)nc2ccccc21          ≤ 100 nM
11  N#Cc1ccc(N2CCN(C(=O)CCOCCc3cc(C#N)cc4c(=O)[nH]ncc34)CC2)nc1    100 to 1000 nM
12  CC(COCCC(=O)N1CCN(c2ncc(C(F)(F)F)cn2)CC1)n1nc(C(F)(F)F)c2c(=O)[nH]ccc21 (centres unmarked) [Compound 389]          ≤ 100 nM
13  N#Cc1ccc(N2CCN(C(=O)c3cccc(Cc4cccc5c4C(=O)NC5=O)c3)CC2)nc1    100 to 1000 nM
14  Cc1nn(CCOCCC(=O)N2CCN(c3ncc(C(F)(F)F)cn3)CC2C)c2cn[nH]c(=O)c12 (centres unmarked)          ≤ 100 nM
15  CC(COCCC(=O)N1CCN(c2ccc(C#N)cn2)CC1)c1cccc2c(=O)[nH]ncc12 (single isomer, unassigned) [Compound 71]          ≤ 100 nM
16  [2H]C([2H])(Cn1nc(C(F)(F)F)c2c(=O)[nH]ncc21)OCCC(=O)N1CCN(c2ncc(C(F)(F)F)cn2)CC1          ≤ 100 nM
17  CC(OCCCC(=O)N1CCN(c2ncc(C(F)(F)F)cn2)CC1)c1cc(Cl)cc2c(=O)[nH]ncc12 (single isomer, unassigned) [Compound 175]          ≤ 100 nM
18  O=C(CCOCCc1cccc2c(=O)[nH]ncc12)N1CCN(c2nc3cc(F)ccc3o2)CC1          ≤ 100 nM
19  COc1ccc(N2CCN(C(=O)CCOCC(C)n3nc(C(F)(F)F)c4c(=O)[nH]ncc43)CC2)nc1 (single isomer, unassigned) [Compound 306]          ≤ 100 nM
20  CC(COCCC(=O)N1CCN(c2ncc(C#N)o2)CC1)n1nc(C(F)(F)F)c2c(=O)[nH]ncc21 (centres unmarked) [Compound 329]          ≤ 100 nM
21  O=C(CCOCCN1C(=O)CCc2c1cn[nH]c2=O)N1CCN(c2ccc(Cl)cn2)CC1          ≤ 100 nM
22  CCC(COCCC(=O)N1CCN(c2ncc(C(F)(F)F)cn2)CC1)n1nc(C(F)(F)F)c2c(=O)[nH]ncc21 (centres unmarked) [Compound 297]          ≤ 100 nM
23  CC(COCCC(=O)N1CCN(c2ncc(C(F)(F)F)cn2)CC1)c1cc(F)cc2c(=O)[nH]ncc12 (centres unmarked) [Compound 120]          ≤ 100 nM
